- Test system: U2OS
- ASSAY_METHOD_TEXT: Multiplex assay against U2OS
- Type: toxicity, cell-based
- TEST_CONDITIONS: human, 24 h, 10 µM, compound concentration 10 uM, replicate 2
Recorded Population Tubulin-Different-Phenotype (%) split into classes low group: < 5%; middle group: ≥ 5% and < 20%; high group: ≥ 20%

MOLECULE | CLASS_ASSIGNMENT
COc1c(C)cc(NC(=O)c2nn(Cc3ccc(F)cc3)c3c2CN(C(=O)c2ccc[nH]2)C[C@]3(C)C(N)=O)cc1C | high group
CC[C@H]1OC(=O)[C@H](C)[C@@H](O[C@H]2C[C@@](C)(OC)[C@@H](O)[C@H](C)O2)[C@H](C)[C@@H](O[C@@H]2O[C@H](C)C[C@H](N(C)C)[C@H]2O)[C@@]2(C)CC(C)=C(O2)[C@H](C)[C@@H](O)[C@]1(C)O | high group
CC(=O)NCCc1c(Cc2ccccc2)[nH]c2ccccc12 [LUZINDOLE] | low group
Oc1c(CN2CCN(c3ccccn3)CC2)cc(Cl)c2cccnc12 | middle group
CCNC1(C(N)=O)CCN(c2ncnc3c2nc(-c2ccccc2Cl)n3-c2ccc(Cl)cc2)CC1 [OTENABANT] | high group
O=C(O)c1cc2ccccc2c(Cc2c(O)c(C(=O)O)cc3ccccc23)c1O [PAMOIC ACID] | middle group
C[C@H](NC(=O)c1c(C(F)F)nn(C)c1Oc1cccc(C(F)(F)F)c1)c1ccc(C(=O)O)cc1 [PALUPIPRANT] | low group
CC(C)(C)c1ccc(S(=O)(=O)Nc2ccc(Cl)cc2C(=O)c2cc[n+]([O-])cc2)cc1 [VERCIRNON] | middle group
Cc1ccc(F)cc1C(=O)Nc1ccc(C(=O)N2Cc3cccn3Cc3ccccc32)c(Cl)c1 [LIXIVAPTAN] | high group
O=C(O)Cc1ccccc1Nc1c(Cl)cccc1Cl [DICLOFENAC] | low group
N#Cc1c(N)nc(SCc2csc(-c3ccc(Cl)cc3)n2)c(C#N)c1-c1ccc(OCCO)cc1 [CAPADENOSON] | high group
CSc1ccccc1N1CCN(CCCCCC(=O)NC2CCCc3ccccc32)CC1.Cl (configuration not stated) | high group
CN(C)CCCc1cc(C(=O)Nc2ccc(-c3ccncc3)cc2)ccc1O.Cl.Cl | low group
Cc1nc2ccc(Oc3ccc(F)cc3)cc2c(=O)n1C[C@H]1CCCN(C(C)C)C1.Cl | high group
CN(C)c1ccnc2sc3c(=O)n(N4CCCCCC4)cnc3c12 | high group
CC1(COc2ccc3c(c2)ncn3-c2ccc3cccc(N4CCC(N)CC4)c3n2)COC1 [CRENOLANIB] | high group
CCCN1CCC[C@@H]2Cc3n[nH]cc3C[C@H]21.Cl [QUINPIROLE HYDROCHLORIDE] | low group
N[C@@]1(C(=O)O)CO[C@H]2[C@H](C(=O)O)[C@H]21 [LY-379268] | low group
O=C1COc2nccc(-c3ccccc3F)c2CN1Cc1cc(C(F)(F)F)cc(C(F)(F)F)c1 | middle group
CN1CCN(c2nc3cc(C(F)(F)F)ccc3n3cccc23)CC1.O=C(O)/C=C\C(=O)O.O=C(O)/C=C\C(=O)O | middle group
c1cc(OCCCN2CCCCC2)ccc1CN1CCCCC1 [JNJ-5207852] | middle group
O=C(NCC(=O)N1CC[C@H](N[C@H]2CC[C@@](O)(c3ccc(-c4ncccn4)cn3)CC2)C1)c1cccc(C(F)(F)F)c1 [PF-4136309] | middle group
Cc1ccc(/C(=C\CN2CCCC2)c2ccccn2)cc1 [TRIPROLIDINE] | middle group

Recorded values, source ChEMBL document CHEMBL5058577.
